Listing: melting point of selected compounds

Past entries and their recorded results:
>>> print(df.to_string())
                                   compound            val
0            CS(=O)(=O)NC(c1ccccc1)c1ccccc1  148 to 150 °C
1  CCCN1CCN(CCCOc2ccc3nc(C#N)nc(NCC(C)(C)C)c3c2)CC1  102 to 104 °C
2  CON(C)C(=O)Nc1ccc(Oc2ccc3ccccc3c2)c(C(F)(F)F)c1  129 to 130 °C
3        CCCCCCCCCCCCCCOc1ccc(C(=O)OC)cc1OC    50 to 51 °C

Then there is this compound:
Prompt: Entry under review: CCOCc1nc2c(c(C)c(C)n3nnnc23)n1CCNC(=O)C(C)C . Reported melting point?
Response: 179 to 181 °C
